From: patent US20030212107A1

SYSTEM: NMDA receptor (Homo sapiens, UniProt Q05586+Q13224)
Sequence (Q13224 27-1484, other chains not shown): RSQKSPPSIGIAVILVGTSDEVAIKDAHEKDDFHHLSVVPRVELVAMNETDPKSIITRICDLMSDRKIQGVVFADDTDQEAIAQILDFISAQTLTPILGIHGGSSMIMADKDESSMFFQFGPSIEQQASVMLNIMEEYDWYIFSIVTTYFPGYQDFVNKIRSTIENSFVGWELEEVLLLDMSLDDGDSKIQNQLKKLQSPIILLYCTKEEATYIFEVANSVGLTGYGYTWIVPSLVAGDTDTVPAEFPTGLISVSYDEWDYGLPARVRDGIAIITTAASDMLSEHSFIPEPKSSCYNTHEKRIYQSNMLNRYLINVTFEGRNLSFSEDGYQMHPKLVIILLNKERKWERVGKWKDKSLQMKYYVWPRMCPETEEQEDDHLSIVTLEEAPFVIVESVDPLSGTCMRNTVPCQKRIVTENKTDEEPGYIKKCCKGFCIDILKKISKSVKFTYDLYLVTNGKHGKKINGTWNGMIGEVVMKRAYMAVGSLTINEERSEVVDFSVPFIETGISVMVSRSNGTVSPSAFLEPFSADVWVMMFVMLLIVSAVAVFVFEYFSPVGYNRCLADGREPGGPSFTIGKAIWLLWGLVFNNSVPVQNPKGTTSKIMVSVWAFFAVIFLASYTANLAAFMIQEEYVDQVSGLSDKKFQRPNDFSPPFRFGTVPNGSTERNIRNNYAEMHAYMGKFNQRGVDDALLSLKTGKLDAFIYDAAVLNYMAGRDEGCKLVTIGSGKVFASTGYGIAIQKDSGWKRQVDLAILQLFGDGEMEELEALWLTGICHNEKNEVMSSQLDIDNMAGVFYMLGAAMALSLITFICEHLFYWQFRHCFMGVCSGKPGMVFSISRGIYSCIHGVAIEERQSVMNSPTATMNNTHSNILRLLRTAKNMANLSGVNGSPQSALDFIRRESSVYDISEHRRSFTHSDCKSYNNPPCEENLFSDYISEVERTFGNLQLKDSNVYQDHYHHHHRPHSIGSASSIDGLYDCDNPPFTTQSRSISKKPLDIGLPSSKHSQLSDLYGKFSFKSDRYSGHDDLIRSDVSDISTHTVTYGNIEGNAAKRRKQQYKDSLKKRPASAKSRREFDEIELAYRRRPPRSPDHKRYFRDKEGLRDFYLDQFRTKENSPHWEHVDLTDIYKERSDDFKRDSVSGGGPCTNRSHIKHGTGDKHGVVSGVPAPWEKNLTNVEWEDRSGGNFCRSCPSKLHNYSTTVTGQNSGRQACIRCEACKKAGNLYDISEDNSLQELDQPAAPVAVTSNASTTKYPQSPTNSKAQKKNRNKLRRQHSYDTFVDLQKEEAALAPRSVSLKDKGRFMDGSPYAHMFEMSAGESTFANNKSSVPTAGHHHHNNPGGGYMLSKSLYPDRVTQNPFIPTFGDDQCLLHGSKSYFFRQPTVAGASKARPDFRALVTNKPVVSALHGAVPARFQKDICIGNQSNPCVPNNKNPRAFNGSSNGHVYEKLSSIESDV
PROTOCOL TEXT: biochemical
pKi: −log10 of the molar value.
READOUT KIND: pKi

P: O[C@@H](CN1CCC(Cc2ccc(F)cc2)CC1)c1ccc(Cl)cc1
Q: O[C@H](CN1CCC(Cc2ccc(F)cc2)CC1)c1ccc(Cl)cc1
[ask] Given the listed records, identify the one among P and Q with higher pKi. Field: selected label. Fill in the label of the entry you choose.
[reply] P
